Below, each of the compounds is paired with its reported LC retention time value.
- Experiment Summary: HILIC, HILICON iHILIC-(P) Classic, HILIC, PEEK, 50 × 2.1 mm, 5 µm, 30 °C, 0.12 mL/min, estimated dead time 0.92 min; A: water + 20 mM ammonium carbonate + 10 mM ammonium hydroxide; B: acetonitrile; gradient (min/%B) 0/90 1/90 21/20 21.5/20 23.5/20 24.5/90 26/90 26.5/90
- Cond: stereoisomer not certain
# output: number + unit

Nc1ncnc2c1ncn2C1OC(CO)C(O)C1O (stereo not given)    3.59 min
NC(CCC(=O)NC(CS)C(=O)NCC(=O)O)C(=O)O (stereo not given)    8.79 min
O=C(O)CCCCC1SCC2NC(=O)NC21 (stereo not given)    3.27 min

Problem: Sample NC(=O)C1=CN(C2OC(COP(=O)(O)OP(=O)(O)OCC3OC(n4cnc5c(N)ncnc54)C(OP(=O)(O)O)C3O)C(O)C2O)C=CC1 (stereo not given) — what was its LC retention time?
Solution: 16.9 min

Problem: Which measured LC retention time value corresponds to CC(C)C(N)C(=O)O (stereo not given) ?
Solution: 6.3 min

###

- Experiment Summary: HILIC, HILICON iHILIC-(P) Classic, HILIC, PEEK, 50 × 2.1 mm, 5 µm, 30 °C, 0.12 mL/min, estimated dead time 0.92 min; A: water + 20 mM ammonium carbonate + 10 mM ammonium hydroxide; B: acetonitrile; gradient (min/%B) 0/90 1/90 21/20 21.5/20 23.5/20 24.5/90 26/90 26.5/90
- Cond: stereoisomer not certain
Observed Property: LC retention time (min)
Respond numerically; units are min and should not be typed.

CCC(C)C(N)C(=O)O (centres undefined)    5.8

Problem: Can you share its LC retention time? I mean this compound: Nc1ccn(C2OC(COP(=O)(O)O)C(O)C2O)c(=O)n1 (centres undefined)
Solution: 11.1

Problem: # query: LC retention time of entry Nc1nc2c(ncn2C2OC(COP(=O)(O)OP(=O)(O)O)C(O)C2O)c(=O)[nH]1 (centres undefined)
Solution: 14.8

###

Quick list: LC retention time per entry.
- Experiment Summary: HILIC, HILICON iHILIC-(P) Classic, HILIC, PEEK, 50 × 2.1 mm, 5 µm, 30 °C, 0.12 mL/min, estimated dead time 0.92 min; A: water + 20 mM ammonium carbonate + 10 mM ammonium hydroxide; B: acetonitrile; gradient (min/%B) 0/90 1/90 21/20 21.5/20 23.5/20 24.5/90 26/90 26.5/90
- Cond: stereoisomer not certain
State the answer as a number, implicitly in min.

O=C(O)CCC(=O)O    11.6
Nc1nc2c(ncn2C2OC(COP(=O)(O)OP(=O)(O)OP(=O)(O)O)C(O)C2O)c(=O)[nH]1 (stereo not given)    17
O=C(O)CC(=O)O    9.18
NC(=O)c1ccc[n+](C2OC(COP(=O)(O)OP(=O)(O)OCC3OC(n4cnc5c(N)ncnc54)C(OP(=O)(O)O)C3O)C(O)C2O)c1 (stereo not given)    13.4

Turning now to a further record.
Problem: Given NC(=O)CC(N)C(=O)O (stereo not given) , state its recorded LC retention time.
Solution: 10.7

###

- Experiment Summary: HILIC, HILICON iHILIC-(P) Classic, HILIC, PEEK, 50 × 2.1 mm, 5 µm, 30 °C, 0.12 mL/min, estimated dead time 0.92 min; A: water + 20 mM ammonium carbonate + 10 mM ammonium hydroxide; B: acetonitrile; gradient (min/%B) 0/90 1/90 21/20 21.5/20 23.5/20 24.5/90 26/90 26.5/90
- Cond: stereoisomer not certain
Observed Property: LC retention time (min)
Number only, in min; omit the unit.

Worked examples follow.
NC(Cc1ccccc1)C(=O)O (stereo unspecified)    5.17
CSCCC(N)C(=O)O (stereo unspecified)    5.98
O=C(O)CC(C(=O)O)C(O)C(=O)O (stereo unspecified)    16.1
C=C(OP(=O)(O)O)C(=O)O    13.7
NC(CCC(=O)NC(CSSCC(NC(=O)CCC(N)C(=O)O)C(=O)NCC(=O)O)C(=O)NCC(=O)O)C(=O)O (stereo unspecified)    15.4
Cc1ncc(C[n+]2csc(CCO)c2C)c(N)n1    12.8
Nc1nc2c(ncn2C2OC(CO)C(O)C2O)c(=O)[nH]1 (stereo unspecified)    6.51
NC(=O)c1ccc[n+](C2OC(COP(=O)([O-])O)C(O)C2O)c1 (stereo unspecified)    9.92

Problem: For NCCCCC(N)C(=O)O (stereo unspecified) , what is its reported LC retention time?
Solution: 18.8

Problem: Value lookup for LC retention time; key = NC(=O)CCC(N)C(=O)O (stereo unspecified)
Solution: 8.38

Problem: Endpoint output: LC retention time of `O=C(O)CC(O)(CC(=O)O)C(=O)O` . Value?
Solution: 16.6
